normalized growth values for the compounds below.
- ASSAY_PROCEDURE: chemical genetic growth profiling, strain panel (AID 1159580);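 also: tested at 20 µM; growth read once vehicle control cultures reached saturation at 30 °C; 1 = growth at the plate median or of vehicle wells; lower values mean less growth of the strain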
- CONDITION_NOTES: S. cerevisiae deletion strains, growth OD, locus YHR200W, strain rpn10, hits give low values
Screen size: about 5,500 compounds; about 2,000 (36%) were called active. Inconclusive results (about 18%) are left out. The list shows a part of the results.
MEASUREMENT_NAME: normalized growth

- CC(C(=O)O)c1ccc(-c2ccccc2)c(F)c1 (stereo not given): 0.978
- C=C(C)[C@@H]1[C@H]2OC(=O)[C@@H]1[C@]1(O)C[C@H]3O[C@]34C(=O)O[C@H]2[C@]14C: 1
- O=C1C=CC(=C(c2ccc(O)cc2)c2ccc(O)cc2)C=C1: 0.988
- CC(=O)OC(C)(C)[C@@H]1Cc2cc3ccc(=O)oc3cc2O1: 0.989
- CC1=C(/C=C/C(C)=C/C=C/C(C)=C/C=C/C=C(C)/C=C/C=C(C)/C=C/C23OC2(C)CC(O)CC3(C)C)C(C)(C)CC(O)C1 (stereo not given): 1.01
- CCS(=O)CCSP(=O)(OC)OC (stereo not given): 1
- CN1CCCN=C1COC(=O)C(O)(c1ccccc1)C1CCCCC1 (stereo not given): 0.993
- CC1=C(CC(=O)O)c2cc(F)ccc2/C1=C\c1ccc(S(C)=O)cc1 (stereo not given): 1.03
- CC[C@H]1OC(=O)[C@H](C)[C@@H](O[C@H]2C[C@@](C)(OC)[C@@H](O)[C@H](C)O2)[C@H](C)[C@@H](O[C@@H]2O[C@H](C)C[C@H](N(C)C)[C@H]2O)[C@](C)(O)C[C@@H](C)CN(C)[C@H](C)[C@@H](O)[C@]1(C)O: 0.977
- C[N+](C)(C)CCOC(N)=O: 0.979
- C[C@H]1CC2C([C@@H](O)C[C@@]3(C)C2CC[C@]3(O)C(=O)CO)[C@@]2(C)C=CC(=O)C=C12 (stereo not given in full): 1.01
- CC1CC2C3CC(F)C4=CC(=O)C=CC4(C)C3(F)C(O)CC2(C)C1(O)C(=O)CO (stereo not given): 1.03
- NC(=O)c1ccc[n+]([C@@H]2O[C@H](COP(=O)([O-])OP(=O)(O)OC[C@H]3O[C@@H](n4cnc5c(N)ncnc54)[C@H](O)[C@@H]3O)[C@@H](O)[C@H]2O)c1: 0.994
- COc1cc2c(cc1OC)[C@@H]1C(=O)c3ccc(OC)c(CC=C(C)C)c3O[C@@H]1CO2: 1.01
- C=C1C2CC[C@H]3[C@]4(C)C[C@H](OC5OC(CO)C(OS(=O)(=O)O)C(OS(=O)(=O)O)C5OC(=O)CC(C)C)C[C@@H](C(=O)O)[C@H]4CC[C@]3(C2)[C@H]1O (stereo not given in full): 0.996
- COc1cc2c(cc1OC)[C@@H]1C(=O)c3ccc(O)c(CC=C(C)C)c3O[C@@H]1CO2: 1
- CN1CCC(=C2c3ccccc3Sc3ccccc32)CC1: 1.01
- COc1cc2c(cc1OC)C(=O)OC2: 1
- CC(C)CC(NC(=O)C(Cc1ccccc1)NC(=O)CNC(=O)CNC(=O)C(N)Cc1ccc(O)cc1)C(=O)O (stereo not given): 0.994
- c1ccc(N=Nc2ccccc2)cc1: 1.03
